Values from patent US20030143251A1

Assay: Stability (decomposition rate) in acidic, neutral and alkaline aqueous solutions
Format: physicochemical
Conditions: buffer, pH 7.5
measuredMetric: half-life at 0.045 M (h)

>>> assayvalue("OCC1OC(Oc2ccc(O)cc2)C(O)C(O)C1O [α-Arbutin, hydroquinone-α-D-glucopyranoside]")
31.5

----------
Assay: Stability (decomposition rate) in acidic, neutral and alkaline aqueous solutions
Assay type: physicochemical
Conditions: aqueous solution, pH 5.5, pH 5.5, aqueous solution, 0.045M, 37° C.; α-arbutin determined after 69 hrs; read-out: Half-life (converted)
measuredMetric: half-life at 0.045 M (h)

>>> assayvalue("Oc1ccc(O)cc1 [Hydroquinone, hydroquinone]")
10.8

----------
Test: Stability (decomposition rate) in acidic, neutral and alkaline aqueous solutions
Type: physicochemical
Details: buffer, pH 6.5
measuredMetric: half-life at 0.045 M (h)

>>> assayvalue("OCC1OC(Oc2ccc(O)cc2)C(O)C(O)C1O [α-Arbutin, hydroquinone-α-D-glucopyranoside]")
53.3

----------
Assay: Stability (decomposition rate) in acidic, neutral and alkaline aqueous solutions
Format: physicochemical
Conditions: aqueous solution, pH 5.5, over pH 5.5 to 7.5, 37° C.; read-out: Half-life in alkaline and acidic regions
measuredMetric: half-life at 0.045 M

>>> assayvalue("Oc1ccc(O)cc1 [Hydroquinone, hydroquinone]")
"0.6 to 10.8 h"
